Test system: HOC-21 cell line
Assay: Tested in vitro for the inhibition of HOC-21(human ovarian cancer) cell line by MTT assay
Format: functional, cell-based
Would you kindly list IC50 for each of these molecules?

Some molecules with known IC50 results, for comparison:
1) CCc1c2c(nc3ccc(O)cc13)-c1cc3c(c(=O)n1C2)COC(=O)[C@]3(O)CC [7-ETHYL-10-HYDROXYCAMPTOTHECIN]; 0.123 µg/mL
2) CCC1(O)C(=O)OCc2c1cc1n(c2=O)Cc2c-1nc1cccc(COC(C)=O)c1c2COC(C)=O (stereo unspecified); > 0.5 µg/mL

Record IC50 per entry; entries follow.
1. CC[C@@]1(O)C(=O)OCc2c1cc1n(c2=O)Cc2c-1nc1ccc(C)c3c1c2CCC3
2. CCC1(O)C(=O)OCc2c1cc1n(c2=O)Cc2c-1nc1cccc(CN)c1c2C (stereo unspecified)
3. CCC1(O)C(=O)OCc2c1cc1n(c2=O)Cc2c-1nc1ccc(C)c3c1c2CCN3 (racemic)
4. CC[C@@]1(O)C(=O)OCc2c1cc1n(c2=O)Cc2c-1nc1ccc(O)c3c1c2CCC3
5. CCC1(O)C(=O)OCc2c1cc1n(c2=O)Cc2c-1nc1ccc(O)c3c1c2CC3 (racemic)

1: 0.00588 µg/mL; 2: 0.0448 µg/mL; 3: 0.0418 µg/mL; 4: 0.0126 µg/mL; 5: 0.0159 µg/mL

Could you tell me IC50 for each of these molecules? They are listed below.
1. CCC1(O)C(=O)OCc2c1cc1n(c2=O)Cc2c-1nc1ccc(O)c3c1c2CCO3 (racemic)
2. CC[C@@]1(O)C(=O)OCc2c1cc1n(c2=O)Cc2cc3ccccc3nc2-1
3. CC[C@@]1(O)C(=O)OCc2c1cc1n(c2=O)Cc2c-1nc1cccc3c1c2COC3
4. CC[C@@]1(O)C(=O)OCc2c1cc1n(c2=O)Cc2c-1nc1cccc3c1c2CNC3
5. CCC1(O)C(=O)OCc2c1cc1n(c2=O)Cc2c-1nc1ccc(C)c3c1c2CCO3 (racemic)

1. 0.079 µg/mL
2. 0.0147 µg/mL
3. 0.0123 µg/mL
4. 0.0377 µg/mL
5. 0.0419 µg/mL
